Entries and their growth
- Test system: SF-295 CNS
- Assay Protocol: NCI-60 one-dose screen, 48 h (100 = growth as untreated, 0 = no growth, -100 = all killed)
- Reported Conditions: 10 µM unless noted
Compounds without any hit were thinned out: in the full panel of roughly 83,000, 20% have a hit. Calls of active or inactive are those of the source. Rule for the calls: active = growth percent below 10; inactive = the rest.

Recorded growth, per entry:
Compound: CC1OC(O[C@@H]2[C@H](O)C(CO)OC(O[C@H]3COC(O[C@H]4CC[C@]5(C)[C@H]6CC[C@]78OC[C@@]9(CCC(C)(C)C[C@H]97)[C@H](O)C[C@@]8(C)[C@]6(C)CC[C@H]5C4(C)C)[C@@H](OC4OC(CO)[C@@H](O)[C@@H](O)[C@@H]4O)[C@@H]3O)[C@H]2OC2OC[C@@H](O)[C@@H](O)[C@@H]2O)[C@@H](O)[C@@H](O)[C@H]1O (stereo partly specified)
growth: -92.3% (active)

Compound: O=C(CCCCCCN1CC(=O)N2[C@@H](c3cccc(Br)c3)c3[nH]c4ccccc4c3C[C@H]2C1=O)NO
growth: 15.6% (inactive)

Compound: COc1ccc(Cn2cc3c(c2-c2cc(OC)c(OC)c(OC)c2)CCCc2cnoc2-3)cc1N
growth: 0% (active)

May I ask what growth has been recorded for C=C1C(=O)O[C@@H]2/C=C(/C)C3=CC(=O)[C@@](C)(C[C@H](OC(=O)/C(C)=C\C)[C@@H]12)O3 ?
55.9% (inactive)

Then what about the compound Nc1nc(N)c2c(n1)NC(c1ccc(Cl)cc1)CC(c1ccc(Nc3nc(NCCO)nc(Nc4ccc(Cl)cc4)n3)cc1)=N2 (stereo unspecified) ?
47.5% (inactive)

How about O=C1[C@H]2Cc3c([nH]c4ccccc34)[C@@H](c3c(Cl)cccc3Cl)N2C(=O)CN1C1CCN(Cc2ccccc2)CC1 ?
106% (inactive)

The measurements presented in this section are drawn from PubChem BioAssay (NCI).
